Cited source: ChEMBL document CHEMBL1201862

Test system: HOP-92
Assay: NCI tumour cell line growth inhibition, 48 h
Calls of active or inactive are those of the source. No stated cut-off is given here; in the data, active = GI50 up to about 1.1 µM and inactive = higher.
Select the correct class. Options are active, inactive and nothing else.

Task: GET /call?item= `O=S1(=O)OCCOS(=O)(=O)C1(Cl)Cl` returns the recorded outcome of this test.
Output: inactive

Task: In this assay, the call recorded for C=CCC1(c2ccc(OC)cc2)C=CC(=O)CC1 (centres undefined) was what?
Output: inactive

Task: Given `CCCCC(=O)c1c(O)ccc2c(C)cc(=O)oc12` , state the outcome it received in this test.
Output: inactive

Task: Could you kindly confirm the outcome this assay logged for `S=C(N/N=C/c1ccccn1)Nc1ccc(Cl)cc1` ?
Output: active

###

System: SK-MEL-2
Assay: NCI tumour cell line growth inhibition, 48 h
The source made the active and inactive calls. Rule as the data show it: active = GI50 up to about 1.1 µM and inactive = higher.
What GI50 was measured for each of the following?

Task: Reported GI50, molecule `O=C(O)c1cc(C(=O)C(=O)c2cc(C(=O)O)c(O)c3ccccc23)c2ccccc2c1O` : ____
Output: > 100 µM (inactive)

Task: // GI50 lookup, key: `Cc1cc(Br)cc(C)c1NC(=O)C(=O)Nn1c(S)nc2ccccc2c1=O`
Output: > 100 µM (inactive)

Task: What measured GI50 goes with `NC(=O)NNC(=O)c1nc[nH]c1[N+](=O)[O-]` ?
Output: > 100 µM (inactive)

Task: Query (molecule): COc1cc2cc(C(=O)N3CC(CCl)c4ccccc43)[nH]c2c(OC)c1OC (stereo unspecified) ; field requested: GI50
Output: 62.5 µM (inactive)

Task: # lookup: GI50 of C[C@]12C=CC(=O)C=C1CC[C@@H]1[C@@H]2C(=O)C[C@@]2(C)[C@H]1CC[C@]2(O)C(=O)CO [PREDNISONE]
Output: > 100 µM (inactive)

Task: Reported GI50, molecule `CCOC(=O)c1ccc(OCc2nc3cc(C(F)(F)F)ccc3nc2-c2ccccc2)cc1` : ____
Output: > 100 µM (inactive)

###

Test system: OVCAR-5
Experiment: NCI tumour cell line growth inhibition, 48 h
Calls of active or inactive are those of the source. Rule as the data show it: active = GI50 up to about 1.1 µM and inactive = higher.
metric: GI50

Task: Look up GI50 for this compound: `CC[C@H](C)C1=C(O)[N@+]2([O-])Oc3ccc(-c4c(O)c(O)c(-c5ccc(O)cc5)c(OC(C)=O)c4OC(C)=O)cc3O[C@]2([C@@H](C)CC)C(=O)N1O`
Output: > 50 µM (inactive)

Task: // lookup GI50 for `CCCCCCCCCCCCC(CCCCCCCCCCCC)OP(=O)(O)O`
Output: > 100 µM (inactive)

Task: Any idea what its GI50 is? The compound is COC(=O)C(C(=O)C(=O)Nc1nnc(S)[nH]1)c1csc(N)n1 (stereo not drawn)
Output: > 100 µM (inactive)

Task: I am curious: what GI50 value has been reported for `OCCOCn1nc(-c2ccccc2)nc1-c1cnccn1` ?
Output: > 100 µM (inactive)

Task: Which value of GI50 has been reported for `Cc1cn2c(/C=N/NC(=N)N)c(-c3cccc([N+](=O)[O-])c3)nc2s1` in the records?
Output: 2.07 µM (inactive)

Task: Dear colleague, I am looking for the recorded GI50 of the following compound: `C/C(=N/NC(=S)N(Cc1ccccn1)Cc1ccccn1)c1cnccn1`
Output: 1.26 µM (inactive)

Task: Which GI50 is listed for `CS/C(=N\Nc1cnc2ccccc2n1)NS(=O)(=O)c1cc(C)c(Cl)cc1Cl` ?
Output: > 100 µM (inactive)

Task: // query GI50 value for entry `Cc1cc(C)n(-c2ccnc3cc(Cl)ccc23)n1`
Output: > 100 µM (inactive)

Task: Please give the measured GI50 for this compound: `CCOC(=O)NC(=O)c1cn(-c2ccc(CCOC(=O)NCCCCCCNC(=O)OCCc3ccc(-n4c(=O)[nH]cc(C(=O)NC(=O)OCC)c4=O)cc3)cc2)c(=O)[nH]c1=O`
Output: > 100 µM (inactive)

Task: Would you kindly share the measured GI50 for COc1cccc2c1C(=O)c1c(O)c3c(c(O)c1C2=O)C[C@@](O)(C(C)=O)C[C@@H]3OC1CC(N(Cc2ccccc2)Cc2ccccc2)C(O)C(C)O1 (stereo partly drawn) ?
Output: 20.5 µM (inactive)

Task: Suppose we examine the compound CC(=O)NC(CC(C)C)C(=O)NC(Cc1ccccc1)C(=S)N1CCCC1 (stereo not drawn) ; what GI50 value has been reported?
Output: > 100 µM (inactive)

Task: Fill in the blank: the reported GI50 of `N#C/C(=C\c1ccc2[nH]ccc2c1)C(=O)c1ccc(O)c(O)c1` is ____.
Output: > 73.8 µM (inactive)

Task: Fill blank: measured GI50 of the compound CC1=CCC(C(C)(C)NC(=O)c2ccccc2)C/C1=N/O (stereo not drawn) is ____.
Output: > 100 µM (inactive)

Task: Look up GI50 for this compound: `[N-]=[N+]=Nc1ccc(CCN2CCN(c3cccc(C(F)(F)F)c3)CC2)cc1I`
Output: 34 µM (inactive)

Task: Consider the compound `CC(=O)NCCCCN(CCCNC(C)=O)C(=O)CNS(=O)(=O)c1cccc2c(N(C)C)cccc12` and give its measured GI50.
Output: > 100 µM (inactive)

Task: Looking for the measured GI50 of `CCCn1c(C23CC4CC(CC(C4)C2)C3)nc2ccc(Cl)cc2c1=O` , can you help?
Output: 74.8 µM (inactive)

Task: Returns the measured GI50 for the input compound. Input: `CCOc1ccc(/N=C(/NC(=O)c2ccccc2)SC)cc1`
Output: > 100 µM (inactive)

Task: // GI50 lookup, key: O=C(O)c1cc(Cl)cc2c1NC1(N2)C(=O)Nc2ccccc21 (stereo not drawn)
Output: > 100 µM (inactive)
